- System: frontal cortex neuronal networks (cortical network activity in vitro)
- ASSAY_DETAILS: Acute effects on cortical neuronal network activity on MEA neurochips (spike train analysis)
- Assay type: cell-based, mice
- PARTICULARS: Mus musculus; concentration of ALA; FIGS. 9 and 10; read-out: EC50 for the decline of activity
REPORTED_PROPERTY: pEC50
pEC50 here: minus log base 10 of the concentration, concentration in moles per litre.

### Prompt For the record O=C(O)CCCCC1CCSS1 (stereo not shown) , what value of pEC50 is listed for frontal cortex neuronal networks (cortical network activity in vitro)?
### Response 2.30
